molecular target: human ANO6 (Homo sapiens); construct: expressed in transfected cells; assay: LACT C2 assay (phosphatidylserine scramblase function assay); assay type: cell-based; conditions: test compound 1 μM, FRT cells expressing human ANO6, 10 μM ionomycin, read-out: Inhibition Level 1 μM
Sequence (Q4KMQ2 1-931 isoform Q4KMQ2-2): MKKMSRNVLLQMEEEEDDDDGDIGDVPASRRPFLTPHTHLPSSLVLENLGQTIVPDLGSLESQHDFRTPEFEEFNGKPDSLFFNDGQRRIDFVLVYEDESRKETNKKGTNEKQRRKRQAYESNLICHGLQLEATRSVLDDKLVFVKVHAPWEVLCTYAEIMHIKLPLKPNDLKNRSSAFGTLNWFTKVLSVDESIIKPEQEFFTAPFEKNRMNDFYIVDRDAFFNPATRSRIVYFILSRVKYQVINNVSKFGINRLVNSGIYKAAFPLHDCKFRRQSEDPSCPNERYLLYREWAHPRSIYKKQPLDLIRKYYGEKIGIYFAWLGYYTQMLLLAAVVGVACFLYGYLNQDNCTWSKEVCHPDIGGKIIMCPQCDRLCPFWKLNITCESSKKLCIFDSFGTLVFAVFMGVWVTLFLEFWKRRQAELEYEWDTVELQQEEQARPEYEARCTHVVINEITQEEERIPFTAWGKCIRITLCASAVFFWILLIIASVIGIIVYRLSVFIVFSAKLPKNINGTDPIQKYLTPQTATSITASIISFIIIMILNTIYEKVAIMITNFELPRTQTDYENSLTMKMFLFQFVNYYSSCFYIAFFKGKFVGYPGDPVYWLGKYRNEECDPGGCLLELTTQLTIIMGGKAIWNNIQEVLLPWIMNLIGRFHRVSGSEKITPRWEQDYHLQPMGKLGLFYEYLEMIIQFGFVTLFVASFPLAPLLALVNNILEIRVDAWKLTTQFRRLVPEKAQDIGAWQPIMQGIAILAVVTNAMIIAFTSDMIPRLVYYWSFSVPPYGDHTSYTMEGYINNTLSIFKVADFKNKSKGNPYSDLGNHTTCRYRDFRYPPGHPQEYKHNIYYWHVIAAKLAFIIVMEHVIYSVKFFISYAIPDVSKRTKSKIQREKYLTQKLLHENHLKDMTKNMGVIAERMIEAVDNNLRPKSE
# inhibition at 1 µM listing for each entry below

Example entries and their recorded answers appear below.
INSERT INTO measurements (compound, assayed_target, reported_endpoint, observed) VALUES
  ('O=C(NCc1c(F)cc(F)cc1F)c1cccc(Nc2ncc(-c3cccc(F)c3)cn2)c1', 'human ANO6 (Homo sapiens)', 'inhibition at 1 µM', '30 to 60%'),
  ('O=C(NCCCc1ccccc1)c1cccc(Nc2ncc(-c3cccc(F)c3)cn2)c1', 'human ANO6 (Homo sapiens)', 'inhibition at 1 µM', '≥ 60%'),
  ('O=C(Nc1ccc(N2CCOCC2)cc1)c1cccc(Nc2ncc(-c3cccc(F)c3)cn2)c1', 'human ANO6 (Homo sapiens)', 'inhibition at 1 µM', '30 to 60%');

*Q* Value lookup for inhibition at 1 µM; key = O=C(NCc1ccc(Br)cc1)c1cccc(Nc2ncc(-c3cccc(F)c3)cn2)c1
*A* 30 to 60%

*Q* Value lookup for inhibition at 1 µM; key = CC(NC(=O)c1cccc(Nc2ccc(-c3ccccc3)nn2)c1)c1ccc(F)cc1 (stereo not drawn)
*A* < 30%

*Q* Value lookup for inhibition at 1 µM; key = CN1CCC(C2CC2NC(=O)c2cccc(Nc3ccc(-c4cccc(F)c4)cn3)c2)CC1 (stereo not drawn)
*A* < 30%

Value source: patent US20230080054A1
